- Test system: primary rat mixed cortical cells
- Test summary: In vitro myelination assay (MBP positive myelin strands, fold myelin pixels above background)
- Format: cell-based
- Measurement parameters: Rattus norvegicus, 10.0 μM compound, relative to baseline of no added compound; read-out: Fold myelin pixels above background, 10.0 μM
Hi there, I'd appreciate the recorded fold induction at 10 µM for every entry that follows.

The compound identified as CCc1cc(Nc2ncn(-c3cccc(F)c3F)n2)cc(N2CCN(C3COC3)CC2)c1 registered its fold induction at 10 µM at 1 to 10

The compound identified as CN1CCCN(c2cc(F)cc(Nc3ncn(-c4cccc(F)c4)n3)c2)CC1 registered its fold induction at 10 µM at ≤ 1

The compound identified as Cc1cc(Nc2ncn(-c3cccc(F)c3)n2)cc(C2CCN(C3COC3)C2)c1 (centres unmarked) registered its fold induction at 10 µM at 1 to 10

The compound identified as F[C@@H]1CCN(c2cc(Nc3ncn(-c4ccccc4)n3)cc(C3CC3)n2)C1 registered its fold induction at 10 µM at 10 to 100

The compound identified as Cc1cc(Nc2ncn(-c3cc(F)cc(F)c3)n2)cc(NC2CCN(C3COC3)CC2)c1 registered its fold induction at 10 µM at 10 to 100

The compound identified as C1=C(c2cc(Nc3ncn(-c4ccccc4)n3)cc(C3=CCOCC3)c2)CCOC1 registered its fold induction at 10 µM at 100 to 1000

The compound identified as Cc1cc(Nc2ncn(-c3cc(F)cc(F)c3)n2)cc(N2CCC3(CC2)COC3)c1 registered its fold induction at 10 µM at 100 to 1000

The compound identified as Cc1cc(Nc2ncn(-c3ccccc3)n2)cc(N2CC(C)OC(C)C2)c1 (centres unmarked) registered its fold induction at 10 µM at ≤ 1

###

- Tested on: primary rat mixed cortical cells
- Test summary: In vitro myelination assay (MBP positive myelin strands, fold myelin pixels above background)
- Type: cell-based
- Measurement parameters: Rattus norvegicus, 10.0 μM compound; read-out: Fold myelin pixels above background relative to baseline of no added compound
Readout: fold induction at 10 µM

The compound identified as Cc1cc(Nc2ncn(-c3cc(F)cc(F)c3)n2)cc(N2CC(S(C)(=O)=O)C2)c1 registered its fold induction at 10 µM at ≤ 1

The compound identified as CCC1COCCN1CCNc1cc(C)cc(Nc2ncn(-c3cc(F)cc(F)c3)n2)c1 (centres unmarked) registered its fold induction at 10 µM at ≤ 1

The compound identified as COCCN1CCC(Nc2cc(C)cc(Nc3ncn(-c4cc(F)cc(F)c4)n3)c2)CC1 registered its fold induction at 10 µM at ≤ 1

The compound identified as CC1(N2CCN(c3cc(C(F)F)cc(Nc4ncn(-c5cccc(F)c5)n4)n3)CC2)COC1 registered its fold induction at 10 µM at 10 to 100

The compound identified as N#Cc1cc(Nc2ncn(-c3cccnc3)n2)cc(N2CCN(C3COC3)CC2)c1 registered its fold induction at 10 µM at ≤ 1

The compound identified as Cc1cc(Nc2ncn(-c3cc(F)cc(F)c3)n2)nc(N2CC3CCOC3C2)c1 (centres unmarked) registered its fold induction at 10 µM at 1 to 10

The compound identified as Cc1cc(Nc2ncn(-c3cc(F)cc(F)c3)n2)cc(N2CCC(CN3CCOCC3)C2)c1 (centres unmarked) registered its fold induction at 10 µM at 1 to 10

The compound identified as Cc1cc(Nc2ncn(-c3cc(F)cc(F)c3)n2)cc(N2CCN(C(=O)C3CCOCC3)CC2)c1 registered its fold induction at 10 µM at 1 to 10

Source of measurements: patent US10766869B2
